These entries and their values trace back to patent US20210261553A1.

# measuredOn: Recombinant G2019S-LRRK2 protein (Homo sapiens, UniProt Q5S007, G2019S)
# Sequence (Q5S007 970-2527 G2019S limits assumed): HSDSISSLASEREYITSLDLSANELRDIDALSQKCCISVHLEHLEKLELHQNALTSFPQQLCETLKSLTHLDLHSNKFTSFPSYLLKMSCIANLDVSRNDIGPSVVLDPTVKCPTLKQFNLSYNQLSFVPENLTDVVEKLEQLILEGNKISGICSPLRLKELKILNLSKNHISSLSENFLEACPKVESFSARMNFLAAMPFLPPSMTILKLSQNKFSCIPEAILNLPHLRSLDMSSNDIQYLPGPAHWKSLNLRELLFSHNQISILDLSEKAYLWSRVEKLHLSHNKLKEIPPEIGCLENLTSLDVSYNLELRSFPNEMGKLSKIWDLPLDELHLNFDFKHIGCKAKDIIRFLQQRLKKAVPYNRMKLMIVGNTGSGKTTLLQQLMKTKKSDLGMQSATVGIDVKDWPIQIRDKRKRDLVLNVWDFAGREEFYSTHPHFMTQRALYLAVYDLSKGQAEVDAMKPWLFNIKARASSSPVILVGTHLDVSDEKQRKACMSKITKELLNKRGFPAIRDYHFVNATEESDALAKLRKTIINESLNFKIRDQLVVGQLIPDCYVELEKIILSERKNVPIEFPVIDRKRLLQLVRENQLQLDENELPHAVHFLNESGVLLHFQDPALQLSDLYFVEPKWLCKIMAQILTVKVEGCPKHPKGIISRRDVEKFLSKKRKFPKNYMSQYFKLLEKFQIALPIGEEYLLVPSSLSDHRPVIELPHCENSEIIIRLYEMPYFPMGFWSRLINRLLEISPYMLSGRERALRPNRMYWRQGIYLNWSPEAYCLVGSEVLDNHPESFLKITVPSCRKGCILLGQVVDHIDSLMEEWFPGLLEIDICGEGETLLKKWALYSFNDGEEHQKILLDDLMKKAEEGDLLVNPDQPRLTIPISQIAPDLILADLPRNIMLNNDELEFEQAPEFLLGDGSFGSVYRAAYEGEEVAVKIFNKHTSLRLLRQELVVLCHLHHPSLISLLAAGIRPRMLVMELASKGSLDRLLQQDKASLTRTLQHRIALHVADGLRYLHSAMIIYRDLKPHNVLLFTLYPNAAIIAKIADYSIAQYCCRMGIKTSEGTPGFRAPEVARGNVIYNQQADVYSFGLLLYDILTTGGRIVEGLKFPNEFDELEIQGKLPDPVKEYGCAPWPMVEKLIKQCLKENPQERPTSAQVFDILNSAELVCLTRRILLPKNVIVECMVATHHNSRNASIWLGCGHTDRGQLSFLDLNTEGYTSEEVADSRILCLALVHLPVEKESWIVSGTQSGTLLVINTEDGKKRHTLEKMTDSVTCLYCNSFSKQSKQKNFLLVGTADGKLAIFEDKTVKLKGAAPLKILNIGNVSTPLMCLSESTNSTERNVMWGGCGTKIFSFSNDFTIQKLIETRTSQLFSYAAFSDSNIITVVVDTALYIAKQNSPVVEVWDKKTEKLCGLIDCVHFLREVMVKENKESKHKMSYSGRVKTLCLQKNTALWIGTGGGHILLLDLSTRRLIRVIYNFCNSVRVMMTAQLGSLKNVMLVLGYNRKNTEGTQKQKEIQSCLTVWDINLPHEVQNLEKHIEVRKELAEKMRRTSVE
# protocolSummary: LRRK2 kinase activity assay (LanthaScreen TR-FRET), G2019S mutant
# appliedConditions: 400 nM LRRKtide, 25 μM ATP, 60 min at room temperature
# Procedure: LRRK2 kinase activity was measured using a LanthaScreen™ Kinase Activity Assay from ThermoFisher Scientific. Recombinant wild type or G2019S-LRRK2 protein (Life Technologies, PR8604B or PV4881, respectively), was incubated with a fluorescein-labeled peptide substrate called LRRKtide that is based upon ezrin/radixin/moesin (ERM) (Life Technologies, PV4901) in the presence of ATP and serially diluted compound. […]
# IC50 per record follows

Solved entries:
CC1=C(C(=O)Nc2ccc3[nH]nc(Br)c3c2)Cn2nnnc2N1C; ≤ 100 nM
CC1=C(C(=O)Nc2ccc3[nH]nc(-c4ccncc4)c3c2)[C@@H](C)n2nnnc2N1C; ≤ 100 nM
CC1=C(C(=O)Nc2ccc3[nH]c(=O)oc3c2)Cn2nnnc2N1C; 1000 to 10000 nM
CC1=C(C(=O)Nc2ccc3[nH]ncc3c2)Cn2nnnc2N1c1ccccc1; ≤ 100 nM
CC1=C(C(=O)Nc2ccc3[nH]nc(C)c3c2)C(C)(C)n2nnnc2N1C; ≤ 100 nM
CC1=C(C(=O)Nc2ccc3cn[nH]c3c2)Cn2nnnc2N1C; 1000 to 10000 nM
CC1=C(C(=O)Nc2ccc3[nH]ncc3c2)C(C)(C)n2nnnc2N1C; ≤ 100 nM
CC1=C(C(=O)Nc2ccc3n[nH]c(Br)c3c2)[C@@H](C)n2nnnc2N1C; ≤ 100 nM

Q: Notebook: pull reported IC50 for Recombinant G2019S-LRRK2 protein (Homo sapiens, UniProt Q5S007, G2019S), entry CC1=C(C(=O)Nc2ccc3[nH]c(=O)[nH]c3c2)Cn2nnnc2N1C
Ans: 100 to 1000 nM

Q: Notebook: pull reported IC50 for Recombinant G2019S-LRRK2 protein (Homo sapiens, UniProt Q5S007, G2019S), entry CC1=C(C(=O)Nc2ccc3[nH]ncc3c2)C(C)n2nnnc2N1C (single isomer, unassigned) [Example 2a]
Ans: ≤ 100 nM

Q: Notebook: pull reported IC50 for Recombinant G2019S-LRRK2 protein (Homo sapiens, UniProt Q5S007, G2019S), entry CC1=C(C(=O)Nc2cc3c[nH]nc3cc2F)Cn2nnnc2N1C
Ans: 100 to 1000 nM

Q: Notebook: pull reported IC50 for Recombinant G2019S-LRRK2 protein (Homo sapiens, UniProt Q5S007, G2019S), entry CC1=C(C(=O)Nc2ccc3[nH]nc(C(N)=O)c3c2)Cn2nnnc2N1C
Ans: ≤ 100 nM

Q: Notebook: pull reported IC50 for Recombinant G2019S-LRRK2 protein (Homo sapiens, UniProt Q5S007, G2019S), entry CC1=C(C(=O)Nc2ccc3c(c2)C(C)(C)NC3=O)[C@@H](C)n2nnnc2N1C
Ans: > 10000 nM

Q: Notebook: pull reported IC50 for Recombinant G2019S-LRRK2 protein (Homo sapiens, UniProt Q5S007, G2019S), entry COC(=O)c1c(NC(=O)C2=C(C)N(C)c3nnnn3C2)ccc2n[nH]cc12
Ans: > 10000 nM
